biological target: CCR2 (Homo sapiens, UniProt P41597); construct: expressed in transfected cells; host or cells: HEK293 (clone C7, passage P6); assay: FLIPR calcium assay, CCR2 cell line; format: cell-based; settings: HEK293 host cell, MCP-1 agonist, intracellular calcium signal; read-out: IC50 (nM) test results for FLIPR detection, CCR2
Sequence (P41597 whole entry, species assumed): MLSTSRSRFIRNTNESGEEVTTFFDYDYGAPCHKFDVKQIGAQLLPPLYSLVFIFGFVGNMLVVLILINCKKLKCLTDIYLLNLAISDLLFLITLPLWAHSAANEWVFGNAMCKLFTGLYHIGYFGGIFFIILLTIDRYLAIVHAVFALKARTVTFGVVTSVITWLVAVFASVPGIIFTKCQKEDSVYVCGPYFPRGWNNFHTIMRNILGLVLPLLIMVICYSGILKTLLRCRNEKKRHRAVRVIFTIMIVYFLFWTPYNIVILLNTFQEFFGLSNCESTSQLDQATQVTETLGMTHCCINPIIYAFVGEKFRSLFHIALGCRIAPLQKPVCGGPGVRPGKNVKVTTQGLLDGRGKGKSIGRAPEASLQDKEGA
Each record here notes measured IC50.

>  <COMPOUND>
CCCCOCCOc1ccc(-c2ccc3c(c2)/C=C(/C(=O)Nc2ccc([S@+]([O-])Cc4c(C)ncn4CC)cc2)CCCN3CC2CCOC2)cc1 (stereo partly shown) [WX013]

>  <IC50>
3.11 nM

$$$$
>  <COMPOUND>
CCCCOCCOc1ccc(-c2ccc3c(c2)C=C(C(=O)Nc2ccc([S@+]([O-])Cc4c(C)ncn4CC)cc2)CCN3CC2CCN(C)CC2)cc1 [WX018]

>  <IC50>
17.9 nM

$$$$
>  <COMPOUND>
CCCCOCCOc1ccc(-c2ccc3c(c2)/C=C(/C(=O)Nc2ccc([S@+]([O-])Cc4c(C)ncn4CC)cc2)CCCN3CC2COC2)cc1 [WX004]

>  <IC50>
3.04 nM

$$$$
>  <COMPOUND>
CCCCOCCOc1ccc(-c2ccc3c(c2)C=C(C(=O)Nc2ccc([S@+]([O-])Cc4c(C)ncn4CC)cc2)CCN3CC2CCCOC2)cc1 (stereo partly shown) [WX003]

>  <IC50>
37 nM

$$$$
